Biological target: UniProtKB P08164
Assay: NAD synthetase coupled enzyme assay
Assay type: biochemical
Details: NAD synthetase 2.0 μg/mL; 0.1 mM NaAD; 0.2 mM ATP; pH 8.5
Excerpt: This Example illustrates the NAD synthetase enzyme inhibiting activity of some compounds of the present invention. [drawing 48] The coupled assay—production of NAD was monitored through conversion to NADH by alcohol dehydrogenase. [NADH] was monitored by 2 parallel methods: the change in absorbance at 340 nm, and fluorescence at 460 nm (excitation 320 nm). […] Controls were included for determining inhibitor background, precipitation, and ADH inhibition.
metric.name: IC50 (µM)

> print(dat)
                                   compound  metric.name  value.prefix  experimental.result
1  C[N+](C)(C)C(Cc1ccccc1)C(=O)OCCCCCCCn1ccc2cc(OCc3ccccc3)ccc21 (stereo not shown)         IC50             =                 30.5
2  C[n+]1cccc(C(=O)NCCCCCCCCOc2ccc(OCc3cccc(Cl)c3)cc2)c1         IC50             =                 27.9
3  C[N+](C)(C)c1ccc(CC(=O)NCCCCCCCCOc2ccc(OC(=O)c3cc(F)c(F)c(F)c3)cc2)cc1         IC50             >                   50
4  C[N+](C)(C)C(Cc1ccccc1)C(=O)NCCCCCCCCOc1ccc(OC(=O)c2cccc(Cl)c2)cc1 (stereo not shown)         IC50             =                   25
5  C[N+](C)(C)c1ccc(CC(=O)NCCCCCCCCOc2ccc(OC(=O)c3ccc(Cl)cc3)cc2)cc1         IC50             =                 31.2
6  CC(C)Oc1ccc(C(=O)Oc2ccc(OCCCCCCCCOC(=O)C(Cc3ccccc3)[N+](C)(C)C)cc2)cc1 (stereo not shown)         IC50             =                   14
7  C[N+](C)(C)C(Cc1ccccc1)C(=O)NCCCCCCCCOc1ccc(OC(=O)c2cc(Cl)cc(Cl)c2Cl)cc1 (stereo not shown)         IC50             =                 22.3

###

# Lookup of reported IC50 keyed by entry
Target: NAD synthetase (Bacillus subtilis)
Test: NAD synthetase coupled enzyme assay
Type: biochemical
Details: NAD synthetase 2.0 μg/mL; 0.1 mM NaAD; 0.2 mM ATP; pH 8.5
Excerpt: This Example illustrates the NAD synthetase enzyme inhibiting activity of some compounds of the present invention. [drawing 48] The coupled assay—production of NAD was monitored through conversion to NADH by alcohol dehydrogenase. [NADH] was monitored by 2 parallel methods: the change in absorbance at 340 nm, and fluorescence at 460 nm (excitation 320 nm). […] Controls were included for determining inhibitor background, precipitation, and ADH inhibition.
metric.name: IC50 (µM)

> print(dat)
                                   molecule                        assay.system  experimental.result
1  C[N+](C)(C)C(Cc1ccc([N+](=O)[O-])cc1)C(=O)OCCCCCCCCOc1ccc(OCc2ccccc2)cc1 (stereo not shown)  NAD synthetase (Bacillus subtilis)                 18.8
2  CN(CCCCCCCCOc1ccc(OCc2ccccc2)cc1)C[C@H](Cc1ccccc1)[N+](C)(C)C  NAD synthetase (Bacillus subtilis)                 26.8
3  C[N+](C)(C)c1ccc(CC(=O)OCCCCCCCCOc2ccc(OCc3ccccc3Cl)cc2)cc1  NAD synthetase (Bacillus subtilis)                 15.1
4  C[N+](C)(C)c1ccc(CC(=O)NCCCCCCCCOc2ccc(OC(=O)c3cccc(Cl)c3)cc2)cc1  NAD synthetase (Bacillus subtilis)                 33.9

###

System: rabbit primary renal cells (RPRC)
Assay: Cytotoxicity in rabbit primary renal cells (annexin V / PI flow cytometry)
Format: cell-based
Conditions: at 300 μM; 24 hr; mean ± SEM
Measured % CELLULAR NECROSIS (RPRC), listed per entry for reference.
metric.name: % CELLULAR NECROSIS (RPRC) (%)

> print(dat)
                                   compound  experimental.result
1  O=C(O)c1cn(C2CC2)c2cc(N3CCNCC3)c(F)cc2c1=O [Ciprofloxacin, reference compound]                    4
2  C[N+](C)(C)C(Cc1ccccc1)C(=O)NCCCCCCCCOc1ccc(OCc2ccccc2)cc1 (stereo not drawn)                   63
3  C[N+](C)(C)[C@H](COCCCCCCCCOc1ccc(OCc2ccccc2)cc1)Cc1ccccc1                   62
4  C[N+](C)(C)C(Cc1ccccc1)C(=O)NCCCCCCCCOc1ccc(OC(=O)c2cccc(Cl)c2)cc1 (stereo not drawn)                   29
5  C[N+](C)(C)C(Cc1ccccc1)C(=O)NCCCCCCCCOc1ccc(OC(=O)c2cc(F)cc(F)c2F)cc1 (stereo not drawn)                   18
6  C[N+](C)(C)C.[I-] [TMAI, tetramethylammonium iodide, reference compound]                    2

###

Biological target: NAD synthetase (Bacillus subtilis, UniProt P08164)
Sequence (P08164 whole entry): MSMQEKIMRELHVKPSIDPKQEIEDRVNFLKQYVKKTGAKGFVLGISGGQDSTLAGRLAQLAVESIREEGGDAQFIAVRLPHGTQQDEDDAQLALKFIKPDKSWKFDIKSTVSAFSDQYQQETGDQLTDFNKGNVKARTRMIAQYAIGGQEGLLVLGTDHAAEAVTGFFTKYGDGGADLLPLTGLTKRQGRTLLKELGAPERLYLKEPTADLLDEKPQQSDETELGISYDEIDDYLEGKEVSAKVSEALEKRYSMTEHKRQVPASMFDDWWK
Assay: NAD synthetase coupled enzyme assay
Assay type: biochemical
Settings: NAD synthetase 2.0 μg/mL; 0.1 mM NaAD; 0.2 mM ATP; pH 8.5
Excerpt: This Example illustrates the NAD synthetase enzyme inhibiting activity of some compounds of the present invention. [drawing 48] The coupled assay—production of NAD was monitored through conversion to NADH by alcohol dehydrogenase. [NADH] was monitored by 2 parallel methods: the change in absorbance at 340 nm, and fluorescence at 460 nm (excitation 320 nm). […] Controls were included for determining inhibitor background, precipitation, and ADH inhibition.
pIC50: −log10 of the molar value.
Measured pIC50 by item
metric.name: pIC50

> print(dat)
                                   compound  experimental.result
1  CN(C)c1ccc(C(=O)Oc2ccc(OCCCCCCCCOC(=O)C(Cc3ccccc3)[N+](C)(C)C)cc2)cc1 (stereo not shown) [Compound 1484]                 4.83
2  C[N+](C)(C)c1ccc(CC(=O)NCCCCCCCCOc2ccc(OC(=O)c3cc(Cl)ccc3Cl)cc2)cc1 [Compound 1634]                 4.67
3  C[N+](C)(C)C(Cc1ccccc1)C(=O)NCCCCCCCCOc1ccc(OC(=O)c2cccc(F)c2)cc1 (stereo not shown) [Compound 1597]                 4.67
4  C[N+](C)(C)C(Cc1ccccc1)C(=O)NCCCCCCCCOc1ccc(OC(=O)c2cc(Cl)ccc2Cl)cc1 (stereo not shown) [Compound 1605]                 4.68
5  C[n+]1cccc(C(=O)NCCCCCCCCOc2ccc(OC(=O)c3cccc(Cl)c3Cl)cc2)c1 [Compound 1661]                 4.63
6  CC(C)Oc1ccc(C(=O)Oc2ccc(OCCCCCCCCNC(=O)Cc3ccc([N+](C)(C)C)cc3)cc2)cc1 [Compound 1629]                 4.68
7  C[N+](C)(C)C(Cc1ccccc1)C(=O)OCCCCCCCCOc1ccc(OCc2ccccc2)cc1 (stereo not shown) [Compound 1338]                 4.64

###

Listing of recorded IC50 by entry.
Target: NAD synthetase (Bacillus subtilis, UniProt P08164)
Test: NAD synthetase coupled enzyme assay
Assay type: biochemical
Conditions: NAD synthetase 2.0 μg/mL; 0.1 mM NaAD; 0.2 mM ATP; pH 8.5
metric.name: IC50 (µM)

> print(dat)
                                    compound  units.of.measure  experimental.result
 1  C[N+](C)(C)C(Cc1ccccc1)C(=O)NCCCCCCCCOc1ccc(OC(=O)c2cc(F)cc(F)c2F)cc1 (stereo not drawn)                µM                 31.4
 2  COc1ccccc1COc1ccc(OCCCCCCCCOC(=O)C(Cc2ccccc2)[N+](C)(C)C)cc1 (stereo not drawn)                µM                 20.5
 3  C[N+](C)(C)C(Cc1ccccc1)C(=O)OCCCCCCCCOc1ccc(OCc2cccc(Cl)c2)cc1.[I-] (stereo not drawn)                µM                 11.5
 4  C[N+](C)(C)C(Cc1ccccc1)C(=O)NCCCCCCCCOc1ccc(OC(=O)c2cccc(F)c2F)cc1 (stereo not drawn)                µM                 20.7
 5  C[N+](C)(C)c1ccc(CC(=O)OCCCCCCCCCOc2ccc(OCc3ccccc3)cc2)cc1                µM                   22
 6  C[N+](C)(C)[C@@H](Cc1ccccc1)C(=O)OCCCCCCCCOc1ccc2oc(-c3ccccc3)cc(=O)c2c1                µM                 19.1
 7  C[N+](C)(C)c1ccc(CC(=O)OCCCCCCCCOc2cccc(OCc3ccccc3)c2)cc1                µM                 36.2
 8  C[N+](C)(C)C(Cc1ccccc1)C(=O)NCCCCCCCCOc1ccc(OC(=O)c2cccc(Cl)c2Cl)cc1 (stereo not drawn)                µM                 34.9
 9  C[N+](C)(C)c1ccc(CCCC(=O)OCCCCCCCCOc2ccc(OCc3ccccc3)cc2)cc1                µM                 38.1
10  C[N+](C)(C)C(Cc1ccccc1)C(=O)NCCCCCCCCOc1ccc(OC(=O)c2c(Cl)cccc2Cl)cc1 (stereo not drawn)                µM                 39.1
11  C[N+]1([C@@H](Cc2ccccc2)C(=O)OCCCCCCCCOc2ccc(OCc3ccccc3)cc2)CCCC1                µM                 19.4
12  C[N+](C)(C)c1ccc(CC(=O)OCCCCCCCOC(=O)c2ccc(OCc3ccccc3)cc2)cc1                µM                 42.2
13  CN(C)[C@@H](Cc1ccccc1)C[N+](C)(C)CCCCCCCCOc1ccc(OCc2ccccc2)cc1                µM                 39.4
14  COc1ccc(COc2ccc(OCCCCCCCCOC(=O)C(Cc3ccccc3)[N+](C)(C)C)cc2)cc1 (stereo not drawn)                µM                 45.5
15  N=C(N)N[C@@H](Cc1ccccc1)C(=O)NCCCCCCCCOc1ccc(OCc2ccccc2)cc1 [Compound 1682]                µM                 17.6
